Target: T1, 4H3619-AA
T1 chain: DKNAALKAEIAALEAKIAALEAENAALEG
Test: two-hybrid library CCmax;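 further: natural log of median RNA to DNA barcode read ratio; higher means stronger binding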
Conditions: mean of both orientations
Measured Attribute: interaction score

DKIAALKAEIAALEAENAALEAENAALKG [4H2580-AA]	-1.26
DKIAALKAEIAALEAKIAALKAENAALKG [4H2604-AA]	-0.188
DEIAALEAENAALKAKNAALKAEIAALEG [4H249-AA]	-1.97
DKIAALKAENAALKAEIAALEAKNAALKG [4H2760-AA]	-1.77
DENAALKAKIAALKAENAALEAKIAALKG [4H1878-AA]	-0.661
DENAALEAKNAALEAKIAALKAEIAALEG [4H1449-AA]	-1.1

1 = DKNAALEAEIAALEAENAALEAKIAALKG [4H3094-AA]
2 = DKNAALEAKIAALKAKNAALKAEIAALEG [4H3449-AA]
Task: Lab note: record which item had the higher interaction score, 1 or 2 . # reply format: chosen label
Result: 2
(2: -1.01, 1: -1.6)

A = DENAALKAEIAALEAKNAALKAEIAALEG [4H1593-AA]
B = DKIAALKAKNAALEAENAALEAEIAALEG [4H2961-AA]
Task: Which has the smaller recorded interaction score, A or B ? # reply format: chosen label
Result: B
(B: -1.98, A: -1.38)

1 = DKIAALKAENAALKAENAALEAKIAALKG [4H2774-AA]
2 = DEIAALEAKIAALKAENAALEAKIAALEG [4H341-AA]
3 = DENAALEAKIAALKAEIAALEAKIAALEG [4H1349-AA]
Task: rank_up(items): orders items by reported interaction score in ascending numerical order. Note for the reader: the ranking is given by listing the labels in the order requested.
Result: 1, 2, 3
(1: -1.75, 2: -1.22, 3: 0.504)
